tested on: rat small-intestinal brush border membrane vesicles; assay: Inhibitory effect on 33PO4 uptake into rat small-intestinal brush border membrane vesicles (rapid filtration method); format: biochemical, Wistar female rat; settings: 1 µM test compound; 33PO4 uptake into rat small-intestinal BBMVs, 60 seconds
Rate of uptake inhibition (%) (1 µM) below 70% gives label 0; Rate of uptake inhibition (%) (1 µM) at or above it gives label 1.

Before answering, review these 6 worked examples.
Smi | Group
C[C@]12CCCN1N(Cc1cccc(F)c1F)C(=O)C(C(=O)Nc1ccc(C(F)(F)F)cc1-c1cnc(Cl)cn1)=C2O | label 1
C[C@]12CCCN1N(Cc1cccc(F)c1F)C(=O)C(C(=O)Nc1ccc(C(F)(F)F)cc1-c1cnc(Cl)nc1)=C2O | label 1
CCC1(CC)C(O)=C(C(=O)Nc2ccc(Cl)cc2-c2cc(C(F)(F)F)ncn2)C(=O)N(Cc2ccc(OCCN3CCOCC3)c(F)c2F)N1C | label 0
COc1cncc(-c2cc(C(F)(F)F)ccc2NC(=O)C2=C(O)[C@@]3(C)CCCN3N(Cc3cccc(F)c3F)C2=O)c1 | label 1
CN1N(Cc2ccc(OCCCCCCC(=O)O)c(F)c2F)C(=O)C(C(=O)Nc2ccc(C(F)(F)F)cc2-c2cc(C(F)(F)F)ncn2)=C(O)C12CCCC2 | label 0
CSC1CN(CCOc2ccc(CN3C(=O)C(C(=O)Nc4ccc(C(F)(F)F)cc4-c4cc(C(F)(F)F)ncn4)=C(O)C4(CCC4)N3C)c(F)c2F)C1 | label 0

Q: Check this compound for Rate of uptake inhibition (%) (1 µM) at or above 70%: COC(=O)CN(C)c1ncc(-c2cc(C(F)(F)F)ccc2NC(=O)C2=C(O)[C@@]3(C)CCCN3N(Cc3cccc(F)c3F)C2=O)cc1C#N
Result: label 0

Q: Check this compound for Rate of uptake inhibition (%) (1 µM) at or above 70%: Cc1c(Cl)ncnc1-c1cc(C(F)(F)F)ccc1NC(=O)C1=C(O)[C@@]2(C)CCCN2N(Cc2cccc(F)c2F)C1=O
Result: label 1

====

# Rate of uptake inhibition (%) (1 µM) values compiled below
tested on: rat small-intestinal brush border membrane vesicles; test: Inhibitory effect on 33PO4 uptake into rat small-intestinal brush border membrane vesicles (rapid filtration method); type: biochemical, Wistar female rat; details: 1 µM test compound; 33PO4 uptake into rat small-intestinal BBMVs, 60 seconds
Number only, in %; omit the unit.

Consider the following illustrative entries.
Compound | Experimental target | Rate of uptake inhibition (%) (1 µM)
CN1N(Cc2cccc(F)c2F)C(=O)C(C(=O)Nc2ccc(Cl)cc2-c2cc(C(F)(F)F)ncn2)=C(O)C12CCC2 [Example 255] | rat small-intestinal brush border membrane vesicles | 80
C[C@]12CCCN1N(Cc1ccc(C#CCN3CCCC3=O)c(F)c1F)C(=O)C(C(=O)Nc1ccc(Br)c(F)c1)=C2O [Example 131] | rat small-intestinal brush border membrane vesicles | 87
C[C@]12CCCN1N(Cc1ccc(C#N)cc1)C(=O)C(C(=O)Nc1cc(F)c(Br)c(F)c1)=C2O [Example 222] | rat small-intestinal brush border membrane vesicles | 97
COc1cccc(CN2C(=O)C(C(=O)Nc3ccc(C(F)(F)F)cc3-c3ccc(C(F)(F)F)nc3)=C(O)[C@@]3(C)CCCN23)c1OC [Example 175] | rat small-intestinal brush border membrane vesicles | 85

Q: Field request: Rate of uptake inhibition (%) (1 µM) | item: COc1cccc(-c2cc(C(F)(F)F)ccc2NC(=O)C2=C(O)[C@@]3(C)CCCN3N(Cc3ccc(CCCOCCOCCOCCO)c(F)c3F)C2=O)c1OC [Example 142]
Result: 76

Q: Field request: Rate of uptake inhibition (%) (1 µM) | item: C[C@]12CCCN1N(Cc1c(F)cc(C#CCCCCOC[C@H](O)CO)cc1F)C(=O)C(C(=O)Nc1ccc(C(F)(F)F)cc1-c1ccc(C(F)(F)F)nc1)=C2O.[Na+] [Example 143]
Result: 71
